TEST_SYSTEM: alpha2A receptor (Homo sapiens, UniProt P08913)
Construct: expressed in transfected cells; host or cells: NIH-3T3
Sequence (P08913 1-465): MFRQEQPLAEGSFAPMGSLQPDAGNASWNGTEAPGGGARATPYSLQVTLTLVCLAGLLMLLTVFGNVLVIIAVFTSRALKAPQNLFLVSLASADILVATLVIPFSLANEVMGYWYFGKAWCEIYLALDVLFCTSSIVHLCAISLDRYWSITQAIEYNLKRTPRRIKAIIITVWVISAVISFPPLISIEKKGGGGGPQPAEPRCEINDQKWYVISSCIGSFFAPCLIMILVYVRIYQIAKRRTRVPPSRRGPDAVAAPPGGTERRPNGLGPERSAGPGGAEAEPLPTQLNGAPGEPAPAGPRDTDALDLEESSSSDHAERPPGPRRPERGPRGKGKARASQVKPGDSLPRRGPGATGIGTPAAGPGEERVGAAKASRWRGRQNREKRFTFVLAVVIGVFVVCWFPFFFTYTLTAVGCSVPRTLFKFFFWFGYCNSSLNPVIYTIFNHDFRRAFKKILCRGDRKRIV
TEST_PROTOCOL: Receptor Selection and Amplification Technology (RSAT) assay, alpha2A
Format: cell-based
STUDY_CONDITIONS: NIH-3T3 cells; NA = not active at concentrations less than 10 micromolar; read-out: RSAT EC50 (nM) Alpha 2A
Reported EC50 values follow for various compounds
ENDPOINT_NAME: EC50 (nM)

1) CC1=C(C)C(NC(=S)NCCO)CC1 (centres unmarked) = 515
2) CC[C@H]1CCCC[C@@H]1NC(=S)NCCO (relative stereo) = 14

---

Reported log10(EC50) values follow for various molecules
TEST_SYSTEM: alpha2B receptor (Homo sapiens, UniProt P18089)
Construct: expressed in transfected cells; host or cells: NIH-3T3
TEST_PROTOCOL: Receptor Selection and Amplification Technology (RSAT) assay, alpha2B
Type: cell-based
STUDY_CONDITIONS: NIH-3T3 cells; NA = not active at concentrations less than 10 micromolar; read-out: RSAT EC50 (nM) Alpha 2B
ENDPOINT_NAME: log10(EC50) (log10 of the value in nM)

1) C[C@H]1CCC[C@H](NC(=S)NCCO)C1 (single isomer, unassigned) [Compound 39] = 1.90
2) OCCNC(=S)NCC1CCCC1 = 2.64
3) C[C@H]1CC[C@H](NC(=S)NCCO)CC1 = 1.76
4) CC1=C(C)C(NC(=S)NCCO)CCC1 (centres unmarked) = 0.78
5) OCCNC(=S)NCC1=C(Cl)CCCC1 = 1.18
6) OCCNC(=S)NC1CCCC=C1Br (centres unmarked) = 1.95
7) CC1=CCCCC1NC(=S)NCCO (centres unmarked) = 1.08
8) CCC1=CCCCC1CNC(=S)NCCO (centres unmarked) = 2.10
9) CC1=C(CNC(=S)NCCO)CCCC1 = 2.10

---

TEST_SYSTEM: alpha2C receptor (Homo sapiens, UniProt P18825)
Construct: expressed in transfected cells; host or cells: NIH-3T3
Sequence (P18825 whole entry): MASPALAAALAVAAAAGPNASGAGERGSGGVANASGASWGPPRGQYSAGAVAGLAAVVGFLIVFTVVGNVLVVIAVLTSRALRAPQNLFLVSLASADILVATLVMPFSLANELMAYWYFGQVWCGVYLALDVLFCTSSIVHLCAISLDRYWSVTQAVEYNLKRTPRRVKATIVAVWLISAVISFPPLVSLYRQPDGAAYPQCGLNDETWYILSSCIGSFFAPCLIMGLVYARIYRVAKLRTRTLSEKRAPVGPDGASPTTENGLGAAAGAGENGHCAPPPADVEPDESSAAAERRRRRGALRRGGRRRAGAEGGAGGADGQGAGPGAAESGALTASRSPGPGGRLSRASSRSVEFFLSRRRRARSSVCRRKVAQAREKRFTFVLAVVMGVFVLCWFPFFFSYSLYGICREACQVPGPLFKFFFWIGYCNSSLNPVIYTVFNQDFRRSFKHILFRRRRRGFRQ
TEST_PROTOCOL: Receptor Selection and Amplification Technology (RSAT) assay, alpha2C
Type: cell-based
STUDY_CONDITIONS: NIH-3T3 cells; NA = not active at concentrations less than 10 micromolar; read-out: RSAT EC50 (nM) Alpha 2C
Reported EC50 values follow for various compounds
ENDPOINT_NAME: EC50 (nM)

1. CC1=C(C)C(NC(=S)NCCO)CC1 (stereo not drawn) [Compound 15] = 197
2. CC1=CCCCC1NC(=S)NCCO (stereo not drawn) [Compound 33] = 251
3. CCCCC1=C(CNC(=S)NCCO)CCC1 [Compound 25] = 738
4. OCCNC(=S)NC1C=CCCC1 (stereo not drawn) [Compound 35] = 630
5. CC1=CCCC1NC(=S)NCCO (stereo not drawn) [Compound 14] = 3000
6. CC1=C(CNC(=S)NCCO)CCC1 [Compound 27] = 1730
7. CC[C@H]1CCCC[C@@H]1NC(=S)NCCO (relative stereo) [Compound 37] = 106
8. CC1=C(C)C(NC(=S)NCCO)CCC1 (stereo not drawn) [Compound 31] = 253
9. CCC1=CCCCC1NC(=S)NCCO (stereo not drawn) [Compound 34] = 59

---

TEST_SYSTEM: alpha2B receptor (Homo sapiens)
Construct: expressed in transfected cells; host or cells: NIH-3T3
Sequence (P18089 1-450): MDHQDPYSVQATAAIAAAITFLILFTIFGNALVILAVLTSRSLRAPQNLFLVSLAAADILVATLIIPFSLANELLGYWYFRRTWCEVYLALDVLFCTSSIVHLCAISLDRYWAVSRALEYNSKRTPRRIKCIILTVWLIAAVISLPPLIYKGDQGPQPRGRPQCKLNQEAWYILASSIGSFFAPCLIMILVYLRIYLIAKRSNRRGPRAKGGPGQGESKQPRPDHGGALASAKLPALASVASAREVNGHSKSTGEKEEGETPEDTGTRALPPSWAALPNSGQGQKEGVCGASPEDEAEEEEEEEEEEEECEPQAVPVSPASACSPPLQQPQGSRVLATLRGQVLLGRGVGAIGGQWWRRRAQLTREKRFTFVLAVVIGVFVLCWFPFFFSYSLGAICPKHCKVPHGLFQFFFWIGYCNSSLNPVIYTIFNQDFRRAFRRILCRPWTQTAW
TEST_PROTOCOL: Receptor Selection and Amplification Technology (RSAT) assay, alpha2B
Type: cell-based
STUDY_CONDITIONS: NIH-3T3 cells; NA = not active at concentrations less than 10 micromolar; read-out: RSAT EC50 (nM) Alpha 2B
ENDPOINT_NAME: EC50

1) CC1=CCCCC1CNC(=S)NCCO (stereo not drawn) [Compound 21] = 72 nM
2) CCC[C@@H]1CCCC[C@H]1NC(=S)NCCO [Compound 5] = 216 nM
3) OCCNC(=S)NCC1C=CCCC1 (stereo not drawn) [Compound 4] = 66 nM
4) CCC1=CC(NC(=S)NCCO)CCC1 (stereo not drawn) [Compound 32] = 96 nM
5) CC[C@H]1CC[C@H](NC(=S)NCCO)CC1 [Compound 36] = 97 nM
6) CC1=C(CNC(=S)NCCO)CCC1 [Compound 27] = 135 nM

---

TEST_SYSTEM: alpha2B receptor (Homo sapiens)
Construct: expressed in transfected cells; host or cells: NIH-3T3
Sequence (P18089 1-450): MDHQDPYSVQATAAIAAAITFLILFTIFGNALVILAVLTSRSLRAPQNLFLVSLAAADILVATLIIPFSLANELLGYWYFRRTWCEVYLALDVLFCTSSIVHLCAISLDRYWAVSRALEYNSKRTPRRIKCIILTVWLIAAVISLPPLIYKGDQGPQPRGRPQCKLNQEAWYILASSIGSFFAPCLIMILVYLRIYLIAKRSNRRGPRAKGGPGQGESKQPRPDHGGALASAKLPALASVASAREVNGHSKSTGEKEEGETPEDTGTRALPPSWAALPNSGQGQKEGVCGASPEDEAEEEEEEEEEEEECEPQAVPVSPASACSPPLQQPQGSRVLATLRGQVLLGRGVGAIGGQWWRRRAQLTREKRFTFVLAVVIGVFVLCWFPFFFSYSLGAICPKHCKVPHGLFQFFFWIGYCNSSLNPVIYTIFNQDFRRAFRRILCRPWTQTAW
TEST_PROTOCOL: Receptor Selection and Amplification Technology (RSAT) assay, alpha2B
Type: cell-based
STUDY_CONDITIONS: NIH-3T3 cells; NA = not active at concentrations less than 10 micromolar; read-out: RSAT EC50 (nM) Alpha 2B
ENDPOINT_NAME: log10 EC50 (log10 of the value in nM)

1) CC1CC=CCC1CNC(=S)NCCO (stereo not drawn) = 1.30
2) OCCNC(=S)NCC1CCCCCC1 = 2.55
3) CC1=CC(CNC(=S)NCCO)CCC1 (stereo not drawn) = 1.57
4) CCC1=C(CNC(=S)NCCO)CCCC1 = 2.89
5) OCCNC(=S)NC1CCCCC1 = 2.49
6) CC1CCCCC1NC(=S)NCCO (stereo not drawn) = 1.43
7) OCCNC(=S)NCC1CCCCC1 = 2.31
8) CC1=C(C)C(NC(=S)NCCO)CC1 (stereo not drawn) = 0.70
9) CC1C=C(CNC(=S)NCCO)CC1 (stereo not drawn) = 2.74
10) OCCNC(=S)NCC1=C(Br)CCCC1 = 1.00
11) OCCNC(=S)NC1C=CCCC1 (stereo not drawn) = 1.86
12) OCCNC(=S)NCC1CC=CCC1 (stereo not drawn) = 1.23
13) CCCCC1=CCCC1CNC(=S)NCCO (stereo not drawn) = 2.91
14) CC(C)[C@@H]1CC[C@@H](C)C[C@H]1NC(=S)NCCO = 2.28
15) CC1=CCCC1NC(=S)NCCO (stereo not drawn) = 1.99
16) CC[C@H]1CCCC[C@@H]1NC(=S)NCCO (relative stereo) = 0.30
17) CCC1=CCCCC1NC(=S)NCCO (stereo not drawn) = 1.04
18) C[C@@H]1CCC[C@@H]1NC(=S)NCCO (relative stereo) = 3.18
19) CC1=CC(NC(=S)NCCO)CC1 (stereo not drawn) = 2.05
20) C[C@H]1CCC[C@H](NC(=S)NCCO)C1 (relative stereo) [Compound 38] = 3.06
21) CC1=CC(NC(=S)NCCO)CCC1 (stereo not drawn) = 1.76
22) CCCC1=CCCCC1NC(=S)NCCO (stereo not drawn) = 1.89
23) CCC1=CC(CNC(=S)NCCO)CCC1 (stereo not drawn) = 1.74
24) OCCNC(=S)NCC1=CCCCC1 = 2.94
